TARGET_OF_ASSAY: D(2) dopamine receptor (Homo sapiens, UniProt P14416)
Sequence (P14416 whole entry): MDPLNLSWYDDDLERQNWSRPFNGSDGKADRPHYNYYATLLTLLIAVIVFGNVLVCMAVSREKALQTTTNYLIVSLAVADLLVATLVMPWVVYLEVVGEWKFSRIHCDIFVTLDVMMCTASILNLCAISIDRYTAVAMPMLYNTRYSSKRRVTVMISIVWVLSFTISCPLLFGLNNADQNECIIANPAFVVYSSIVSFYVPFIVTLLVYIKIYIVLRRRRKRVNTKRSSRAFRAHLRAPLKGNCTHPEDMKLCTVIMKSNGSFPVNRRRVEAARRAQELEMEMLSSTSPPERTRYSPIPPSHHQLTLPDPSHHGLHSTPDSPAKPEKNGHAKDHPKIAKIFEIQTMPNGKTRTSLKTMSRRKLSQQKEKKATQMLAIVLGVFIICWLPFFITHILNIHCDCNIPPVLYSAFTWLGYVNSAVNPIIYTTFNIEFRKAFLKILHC
METHOD_NOTES: Receptor Binding Test: 1. Experimental Materials:(1) D2 receptor Cell Transfection:This experiment utilizes the plasmid vector containing the gene of D2 receptor protein for transfecting HEK293 cells by calcium phosphate transfection method.
Flag rule - Ki less than 10 nM flags MET; the remaining entries get NOT MET.

Ask: Just wondering, is Ki of `O=C(N[C@H]1CC[C@H](CCN2CCN(c3nsc4ccccc34)CC2)CC1)OCc1ccccc1` below 10 nM?
Reply: MET

Ask: Just wondering, is Ki of `O=C(N[C@H]1CC[C@@H](CCN2CCN(c3nsc4ccccc34)CC2)CC1)OCc1ccccc1` below 10 nM?
Reply: MET

Ask: Just wondering, is Ki of `O=C(N[C@H]1CC[C@H](CCN2CCN(c3nsc4ccccc34)CC2)CC1)OC1CCCCC1` below 10 nM?
Reply: NOT MET

Ask: Just wondering, is Ki of `O=C(N[C@H]1CC[C@H](CCN2CCN(c3nsc4ccccc34)CC2)CC1)OC1CC1` below 10 nM?
Reply: MET

Ask: Just wondering, is Ki of `CCOC(=O)N[C@H]1CC[C@@H](CCN2CCN(c3nsc4ccccc34)CC2)CC1` below 10 nM?
Reply: MET

Ask: Just wondering, is Ki of `O=C(N[C@H]1CC[C@H](CCN2CCN(c3nsc4ccccc34)CC2)CC1)Oc1ccc([N+](=O)[O-])cc1` below 10 nM?
Reply: NOT MET

###

METHOD_NOTES: Dopamine D3 Receptor Binding Test: The experiment is carried out by the method according to Journal of Pharmacology and Experimental Therapeutics 2010, 333(1): 328. With [3H]methyl-spiperone (0.3 nM) as the ligand and (+)-butaclamol (10 LM) for determining non-specific binding, binding tests are carried out on human recombinant D3 receptor (expressed in CHO cells).
Format: cell-based
Flag rule - Ki less than 1 nM flags TRUE; the remaining entries get FALSE.

Ask: Just wondering, is Ki of `COC(=O)N[C@H]1CC[C@H](CCN2CCN(c3nsc4ccccc34)CC2)CC1` below 1 nM?
Reply: TRUE

Ask: Just wondering, is Ki of `O=C(N[C@H]1CC[C@H](CCN2CCN(c3nsc4ccccc34)CC2)CC1)Oc1ccc(Cl)cc1` below 1 nM?
Reply: FALSE

Ask: Just wondering, is Ki of `O=C(N[C@H]1CC[C@@H](CCN2CCN(c3nsc4ccccc34)CC2)CC1)OCc1ccccc1` below 1 nM?
Reply: FALSE

Ask: Just wondering, is Ki of `COC(=O)N[C@H]1CC[C@@H](CCN2CCN(c3nsc4ccccc34)CC2)CC1` below 1 nM?
Reply: TRUE

Ask: Just wondering, is Ki of `CCOC(=O)N[C@H]1CC[C@@H](CCN2CCN(c3nsc4ccccc34)CC2)CC1` below 1 nM?
Reply: TRUE

Ask: Just wondering, is Ki of `O=C(N[C@H]1CC[C@H](CCN2CCN(c3nsc4ccccc34)CC2)CC1)OC1CCCCC1` below 1 nM?
Reply: FALSE

Ask: Just wondering, is Ki of `Cc1ccccc1OC(=O)N[C@H]1CC[C@H](CCN2CCN(c3nsc4ccccc34)CC2)CC1` below 1 nM?
Reply: FALSE

Ask: Just wondering, is Ki of `O=C(N[C@H]1CC[C@H](CCN2CCN(c3nsc4ccccc34)CC2)CC1)Oc1ccccc1` below 1 nM?
Reply: TRUE

Ask: Just wondering, is Ki of `O=C(N[C@H]1CC[C@H](CCN2CCN(c3nsc4ccccc34)CC2)CC1)Oc1ccc([N+](=O)[O-])cc1` below 1 nM?
Reply: FALSE

Ask: Just wondering, is Ki of `COc1cccc(OC(=O)N[C@H]2CC[C@H](CCN3CCN(c4nsc5ccccc45)CC3)CC2)c1` below 1 nM?
Reply: FALSE

Ask: Just wondering, is Ki of `O=C(N[C@H]1CC[C@H](CCN2CCN(c3nsc4ccccc34)CC2)CC1)OC1CC1` below 1 nM?
Reply: FALSE

Ask: Just wondering, is Ki of `CC(C)COC(=O)N[C@H]1CC[C@H](CCN2CCN(c3nsc4ccccc34)CC2)CC1` below 1 nM?
Reply: TRUE

Ask: Just wondering, is Ki of `O=C(N[C@H]1CC[C@H](CCN2CCN(c3nsc4ccccc34)CC2)CC1)OCc1ccccc1` below 1 nM?
Reply: TRUE

###

TARGET_OF_ASSAY: 5-hydroxytryptamine receptor 1A (Homo sapiens, UniProt P08908)
Sequence (P08908 whole entry): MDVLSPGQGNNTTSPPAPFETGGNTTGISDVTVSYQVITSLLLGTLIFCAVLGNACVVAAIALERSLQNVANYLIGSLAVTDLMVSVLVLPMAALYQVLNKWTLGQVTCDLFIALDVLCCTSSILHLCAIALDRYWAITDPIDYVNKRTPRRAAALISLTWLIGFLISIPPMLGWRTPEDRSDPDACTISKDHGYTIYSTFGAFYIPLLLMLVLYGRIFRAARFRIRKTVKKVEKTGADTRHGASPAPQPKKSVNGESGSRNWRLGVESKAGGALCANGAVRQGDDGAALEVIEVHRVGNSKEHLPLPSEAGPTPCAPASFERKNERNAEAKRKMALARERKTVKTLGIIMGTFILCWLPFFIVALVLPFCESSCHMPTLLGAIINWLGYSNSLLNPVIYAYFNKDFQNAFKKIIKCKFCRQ
METHOD_NOTES: 5-HT1A Receptor Binding Test: 1. Experimental Materials:The isotopic ligand of 5-H1A receptor […] (purchased from PE Corporation), (+)5-hydroxytryptamine (purchased from Sigma Corporation), GF/B glassfiber filter (purchased from Whatman Corporation), fat-soluble scintillation fluid: PPO and POPOP (purchased from Shanghai No. 1 Reagent Factory), toluene (purchased from Sinopharm Chemical Reagent Co., Ltd), and Tris (imported and subpackaged).Cells: HEK-293 cells stably expressing 5-HT1A receptors as obtained by gene recombination are cultured for 3-5 days in cell culture medium DMEM supplemented with 10% serum. […] Total binding tube […] 20 μL D1 Binding Buffer 20 μL Cells 160 μL Non-specific tube […] 20 μL 5-HT(10−4) 20 μL Cells 160 μL Tube with the […] 20 μL compound to be tested The compound to be tested 20 μL Cells 160 μL The components are mixed to homogeneity, and then the above tubes are transferred to water bath at 30° C. (1 h), removed into ice bath immediately, and suction filtered on Harvest (with ice cold Tris eluate for 5 times).
Flag rule - Ki less than 2 nM flags y; the remaining entries get n.

Ask: Just wondering, is Ki of `CCOC(=O)N[C@H]1CC[C@@H](CCN2CCN(c3nsc4ccccc34)CC2)CC1` below 2 nM?
Reply: y

Ask: Just wondering, is Ki of `O=C(N[C@H]1CC[C@@H](CCN2CCN(c3nsc4ccccc34)CC2)CC1)OCc1ccccc1` below 2 nM?
Reply: n

Ask: Just wondering, is Ki of `COC(=O)N[C@H]1CC[C@@H](CCN2CCN(c3nsc4ccccc34)CC2)CC1` below 2 nM?
Reply: n

Ask: Just wondering, is Ki of `O=C(N[C@H]1CC[C@H](CCN2CCN(c3nsc4ccccc34)CC2)CC1)OC1CCCCC1` below 2 nM?
Reply: y

Ask: Just wondering, is Ki of `O=C(N[C@H]1CC[C@H](CCN2CCN(c3nsc4ccccc34)CC2)CC1)OCc1ccccc1` below 2 nM?
Reply: y

Ask: Just wondering, is Ki of `O=C(N[C@H]1CC[C@H](CCN2CCN(c3nsc4ccccc34)CC2)CC1)OC1CC1` below 2 nM?
Reply: n
